target: CYP6P3 (Anopheles gambiae, UniProt Q8T632); construct: recombinant, pCWori+ vector, E. coli membranes co-expressing An. gambiae CPR; cytochrome b5 added in metabolism assays; with NADPH--cytochrome P450 reductase; test: inhibition of diethoxyfluorescein (DEF) fluorescent probe metabolism
Sequence (Q8T632 1-509): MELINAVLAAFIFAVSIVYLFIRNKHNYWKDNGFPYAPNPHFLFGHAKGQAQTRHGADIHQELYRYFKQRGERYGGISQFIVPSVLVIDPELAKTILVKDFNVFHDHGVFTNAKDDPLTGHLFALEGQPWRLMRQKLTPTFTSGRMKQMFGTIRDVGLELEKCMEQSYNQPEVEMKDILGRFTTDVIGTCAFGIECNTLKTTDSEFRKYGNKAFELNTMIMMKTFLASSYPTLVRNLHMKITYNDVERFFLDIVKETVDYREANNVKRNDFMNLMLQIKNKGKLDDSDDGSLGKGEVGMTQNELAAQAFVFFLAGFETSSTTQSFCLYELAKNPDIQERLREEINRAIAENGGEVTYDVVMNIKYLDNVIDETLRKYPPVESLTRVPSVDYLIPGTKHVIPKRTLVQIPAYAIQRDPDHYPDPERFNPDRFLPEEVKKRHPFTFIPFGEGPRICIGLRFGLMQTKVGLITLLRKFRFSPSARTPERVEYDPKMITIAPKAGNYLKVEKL
Sequence (Q86QH5 1-679 partner): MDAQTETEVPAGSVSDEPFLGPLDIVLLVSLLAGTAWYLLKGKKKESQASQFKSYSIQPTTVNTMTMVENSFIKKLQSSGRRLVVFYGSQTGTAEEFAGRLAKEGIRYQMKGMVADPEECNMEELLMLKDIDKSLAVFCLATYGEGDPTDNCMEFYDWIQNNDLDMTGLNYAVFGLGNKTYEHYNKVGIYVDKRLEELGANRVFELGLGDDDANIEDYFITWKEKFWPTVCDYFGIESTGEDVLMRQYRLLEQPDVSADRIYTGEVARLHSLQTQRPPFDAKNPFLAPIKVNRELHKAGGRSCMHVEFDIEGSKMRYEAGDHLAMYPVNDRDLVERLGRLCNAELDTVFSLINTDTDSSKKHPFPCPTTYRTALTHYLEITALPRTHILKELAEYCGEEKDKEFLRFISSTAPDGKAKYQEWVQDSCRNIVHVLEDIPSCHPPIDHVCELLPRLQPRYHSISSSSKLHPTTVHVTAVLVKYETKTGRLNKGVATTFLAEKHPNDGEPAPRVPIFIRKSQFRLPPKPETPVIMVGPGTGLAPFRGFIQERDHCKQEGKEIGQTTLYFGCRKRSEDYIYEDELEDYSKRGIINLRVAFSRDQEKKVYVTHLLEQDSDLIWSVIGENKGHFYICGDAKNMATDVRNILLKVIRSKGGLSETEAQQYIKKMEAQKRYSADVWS
Record form. Attribute: pIC50. Fill in for each entry.
Numbers only, as −log10 of the molar value.

Find the measured pIC50: item CCOCn1c(-c2ccc(Cl)cc2)c(C#N)c(Br)c1C(F)(F)F , target or system CYP6P3 (Anopheles gambiae, UniProt Q8T632).
4.52

Then this compound:
Find the measured pIC50: item CC1(C)C(C=C(Cl)Cl)C1C(=O)OC(C#N)c1cccc(Oc2ccccc2)c1 (centres unmarked) , target or system CYP6P3 (Anopheles gambiae, UniProt Q8T632).
4.78
